# System: liver slices
# ASSAY COMMENT: Influence of bile acids on methylsterols and dimethylsterols in liver slices
# Format: cell-based
# CONDITIONS: bile acids 160 µM for 9-h, n=2 for UDCA, CDCA, DCA, n=3 for CA and LCA, ratio to campesterol

SUBSTANCE SMILES | Methylst.-dien (470 m/z)
C[C@H](CCC(=O)O)[C@H]1CC[C@H]2[C@@H]3CC[C@@H]4C[C@H](O)CC[C@]4(C)[C@H]3CC[C@]12C | 67 % of control
C[C@H](CCC(=O)O)[C@H]1CC[C@H]2[C@@H]3[C@H](O)C[C@@H]4C[C@H](O)CC[C@]4(C)[C@H]3CC[C@]12C | 181 % of control
C[C@H](CCC(=O)O)[C@H]1CC[C@H]2[C@@H]3CC[C@@H]4C[C@H](O)CC[C@]4(C)[C@H]3C[C@H](O)[C@]12C | 144 % of control
C[C@H](CCC(=O)O)[C@H]1CC[C@H]2[C@@H]3[C@@H](O)C[C@@H]4C[C@H](O)CC[C@]4(C)[C@H]3CC[C@]12C | 235 % of control
